Molecular target: T1, human CD25 on CHO-K1/hCD25 cells (human, UniProt P01589 22-272)
T1 construct: whole, on cells; The construct of the cell line is not described
T1 sequence (looked up): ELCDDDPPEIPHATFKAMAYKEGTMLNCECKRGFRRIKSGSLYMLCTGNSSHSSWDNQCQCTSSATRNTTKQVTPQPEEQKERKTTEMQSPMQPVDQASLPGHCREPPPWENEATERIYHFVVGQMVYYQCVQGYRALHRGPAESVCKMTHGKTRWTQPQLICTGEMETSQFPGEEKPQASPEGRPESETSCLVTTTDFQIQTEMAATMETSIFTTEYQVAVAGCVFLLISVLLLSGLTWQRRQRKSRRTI
Experiment: flow cytometry on CHO-K1/hCD25 cells
Entries and their measured Relative activity (%) compared with 686 follow.
Be sure to follow the number with its unit.

Worked set:
binder | val
chimeric antibody 2047-3H8L2 (antibody, human IgG1, kappa, V domains shown, Chimeric, human IgG1/kappa; also called 2047-3ix) VH: QVQLKQSGAELVKPGASVKMSCKTSGYTFTDYVISWVKQRTGQGLEWIGEIYPGSGSTYYNEKFKGKATLTADISSNTAYMQLSSLTSEDSAVYFCASINFDYWGHGTTLTVSS VL: DIVMTQSPATLSVTPGDRVSLSCRASQSISDYLHWYQQKSHESPRLLIKYASQSISGIPSRFSGSGSGSDFTLSINSVEPEDVGVYYCQNGHSFPYTFGGGTKLEIKR | 205%
chimeric antibody 2046-18H1L1 (antibody, human IgG1, kappa, V domains shown, Chimeric, human IgG1/kappa; also called 2046-18ix) VH: DVQLQESGPGLVKPSQSLSLTCTVTGYSITSDYAWNWIRQFPGNKLEWMGYISYSGITIYNPSLKSRISITRDTSKNQFFLQLNSVTTEDTATYYCARWLLQIYYAMDYWGQGTSVTVSS VL: DVVMTQTPLSLPVSLGDQASISCSSSQSLVHSNGNTYLHWYLHKPGQSPKLLIYKVSNRFSGVPDRFSGSGSGTDFTLKISRVEAEDLGVYFCSQSTHVPLTFGAGTKLELKR | 110%

Next up:
What value of Relative activity (%) compared with 686 has been recorded for this entry: chimeric antibody 2046-2H1L1 (antibody, human IgG1, kappa, V domains shown, Chimeric (murine V, human IgG1/kappa); also called 2046-2ix) VH: DVQLQESGPGLVKPSQSLSLTCTVTGYSITSDYAWNWIRHFPGNKLEWMGYITYSGSTVYNPSLKSRISITRDTSKNHFFLQLNSVTTEDTATYYCARWLLQIYYAMDYWGQGTSVTVSS VL: DVVMTQTPLSLPVSLGDQASISCRSSQSLVHSNGNTYLHWYLQKPGQSPKLLIYKVSNRFSGVPDRFSGSGSGTDFTLKISRVEAEDLGVYFCSQSTHVPLTFGAGTKLELKR
63.8%
